assay: physchem; format: physicochemical; conditions: 5% dextrose solution, 1.0% concentration, read-out: antibacterial activity retained in a 24 hour period
measured.metric: remaining at 24 h (%)
Report the figure in % without appending any unit label.

Return reported remaining at 24 h; argument: CC1N[C@H](c2ccc(O)cc2)C(=O)N1[C@@H]1C(=O)N2[C@@H]1SC(C)(C)[C@@H]2C(=O)O (stereo partly shown) [Acetaldehyde derivative] 80

---

experiment: Stability in aqueous solution at room temperature, microbiological assay using B. subtilis; conditions: water
Where a name gives a salt, the structure may show the parent alone.
Below, each entry is listed with its recorded remaining at 6.5 h.
# output: bare number, implied unit %

[[record]]
compound = "CC1N[C@H](c2ccc(O)cc2)C(=O)N1[C@@H]1C(=O)N2[C@@H]1SC(C)(C)[C@@H]2C(=O)O (some centres unmarked)"
numeric_readout = 98


Turning now to a further record.
Which remaining at 6.5 h value is on record for CC1(C)S[C@@H]2[C@H](NC(=O)[C@H](N)c3ccc(O)cc3)C(=O)N2[C@H]1C(=O)O [Amoxicillin sodium salt] ? 58

Measured values drawn from patent US4029805A for this set.
